Where do the numbers come from? From patent US10774064B2.

experimental.target: small-conductance Ca2+-activated K+ channels (SK channels, subtype 2) (Homo sapiens, UniProt Q9H2S1)
Construct: expressed in transfected cells; host or cells: HEK293
procedure.text: whole-cell patch-clamp of ionic current through SK2 channels in HEK293 cells (SC100)
Format: cell-based
experimental.setup: concentration that increases the basal current by 100%; HEK293 cells expressing SK2 channels
property.measured: SC100

INSERT INTO measurements (molecule, property_measured, value_observed) VALUES
  ('Cc1cc(C)n(-c2nc(N[C@H]3CCCC(F)(F)C3)cc([C@@H](C)O)n2)n1 (single isomer, unassigned) [Compound 354]', 'SC100', '+ (+ means >1 uM)'),
  ('Cc1cc(NC2CCC(F)(F)CC2)nc(-n2ccc(C#N)n2)n1 [Compound 212]', 'SC100', '+ (+ means >1 uM)'),
  ('Cc1cc(NC2CCC(F)(F)C2)nc(-n2ccc(C)n2)n1 (centres unmarked) [Compound 150]', 'SC100', '+ (+ means >1 uM)'),
  ('CCN(c1cc(C)nc(-n2nc(C)cc2C)n1)C1CCC(F)(F)CC1 [Compound 161]', 'SC100', '+ (+ means >1 uM)'),
  ('Cc1cc(C)n(-c2nc(NC3CCC(F)(F)C3)cc(C3CC3)n2)n1 (centres unmarked) [Compound 217]', 'SC100', '+ (+ means >1 uM)');

###

experimental.target: small-conductance Ca2+-activated K+ channels (SK channels, subtype 2) (Homo sapiens, UniProt Q9H2S1)
Construct: expressed in transfected cells; host or cells: HEK293
procedure.text: whole-cell patch-clamp of ionic current through SK2 channels in HEK293 cells (SC100)
Format: cell-based
experimental.setup: whole-cell patch-clamp, HEK293 cells expressing SK2 channels; concentration that increases the basal current by 100%
property.measured: SC100 (μM)

INSERT INTO measurements (compound, value_observed) VALUES
  ('COc1cc(NC2CCCOC2)nc(-c2nc(C)cs2)n1 (centres unmarked) [IN11106-027-P1]', '+ (+ means >1 uM)'),
  ('Cc1ccn(-c2nc(NC3CCC(F)(F)CC3)cc(OC3CNC3)n2)n1 [NSSy5648]', '+ (+ means >1 uM)'),
  ('Cc1ccn(-c2nc(C#N)cc(NC3CCC(F)(F)CC3)n2)n1 [IN11288-025-P1]', '+ (+ means >1 uM)');

###

experimental.target: small-conductance Ca2+-activated K+ channels (SK channels, subtype 2) (Homo sapiens)
Construct: expressed in transfected cells; host or cells: HEK293
procedure.text: whole-cell patch-clamp of ionic current through SK2 channels in HEK293 cells (SC100)
Type: cell-based
experimental.setup: whole-cell patch-clamp, HEK293 cells expressing SK2 channels; concentration that increases the basal current by 100%
property.measured: SC100 (μM)

INSERT INTO measurements (molecule, value_observed) VALUES
  ('Cc1csc(-c2nc(NC3CCC(F)CC3)cc(N3CCOCC3)n2)n1 (centres unmarked)', '+ (+ means >1 uM)'),
  ('Cc1cc(C)n(-c2nc(NC3CCCC(C(F)(F)F)C3)cc(C(C)O)n2)n1 (centres unmarked) [IN10973-005-P1]', '+ (+ means >1 uM)'),
  ('Cc1ccn(-c2cc(N3CCOCC3)cc([C@H](O)c3ccc(F)cc3)n2)n1', '+ (+ means >1 uM)');
